Biological target: human FPTase (Homo sapiens, UniProt P49354+P49356)
Test: In vitro inhibition of human farnesyl-protein transferase ([3H]-FPP incorporation into Ras-CVIM)
Conditions: 100 nM Ras-CVIM, 30 min, read-out: IC50, inhibitory activity against human FPTase
pIC50: −log10 of the molar value.
readout-type: pIC50

| mol | reported-result |
| --- | --- |
| COc1ccccc1CN(CC(=O)N[C@@H](CCSC)C(=O)O)C[C@@H]1CCCN1C(=O)CCc1c[nH]cn1 | > 5.00 |
